Data origin, for the record: patent US7417043B2

Counter-ions that a name gives are not always drawn.
Entries and their melting point
Respond numerically; units are °C and should not be typed.

COMPOUND | UNIT NAME | melting point
CC(C)CN1CCC(c2cccc(S(C)(=O)=O)c2)CC1 (as salt: HCl) | °C | 212
CCN1CCC(c2cccc(S(C)(=O)=O)c2)CC1 (as salt: HCl) | °C | 158
CCCCN1CCC(c2cccc(C(F)(F)F)c2)CC1 (as salt: HCl) | °C | 222

Moving on to the next compound.
Entry CCCN1CCN(c2cccc(C(C)=O)c2)CC1 (as salt: oxalate) , melting point reported as 119

---

Counter-ions that a name gives are not always drawn.
PROPERTY: melting point (°C)
Respond numerically; units are °C and should not be typed.

Before answering, review these 3 worked examples.
COMPOUND | PROPERTY | REPORTED
CCCN1CCC(c2cccc(C#N)c2)CC1 (as salt: fumarate) | melting point | 122
CC(C)N1CCC(c2cccc(S(C)(=O)=O)c2)CC1 (as salt: HCl) [Example 9] | melting point | 220
CCCN1CCN(c2cccc(S(C)(=O)=O)c2)CC1 (as salt: HCl) | melting point | 233

Moving on to the next compound.
Entry CCCN1CCC(c2cccc(C(F)(F)F)c2)CC1 (as salt: HCl) , melting point reported as 195
